# maps each entry to its Chromogenic IC50 ratio rat/human
Biological target: T1, rat PAI-1 (rat, UniProt P20961 24-402)
T1 sequence: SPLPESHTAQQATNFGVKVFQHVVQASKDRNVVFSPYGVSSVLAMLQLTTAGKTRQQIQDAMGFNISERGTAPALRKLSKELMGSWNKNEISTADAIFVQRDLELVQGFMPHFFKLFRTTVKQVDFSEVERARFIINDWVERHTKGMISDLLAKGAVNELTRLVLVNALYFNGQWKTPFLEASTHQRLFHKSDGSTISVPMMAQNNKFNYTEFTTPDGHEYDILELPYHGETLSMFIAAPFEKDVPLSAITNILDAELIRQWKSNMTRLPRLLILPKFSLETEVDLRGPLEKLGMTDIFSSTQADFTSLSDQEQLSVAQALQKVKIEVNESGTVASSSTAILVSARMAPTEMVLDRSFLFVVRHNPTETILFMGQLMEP
Experiment: cell-based or functional assay
Express it in fold; write the number only.

binder	Chromogenic IC50 ratio rat/human [fold]
Antibody 02 IgG1, not germlined (antibody, V domains shown) VH: QVQLVQSGAEVKKPGSSVKVSCKASGGTFSSYAISWVRQAPGQGLEWMGGIIPTFGTANYAQKFQGRVTITADESTSTAYMELSSLRSEDTAVYYCAREKRQWLEGHFDYWGRGTLVTVSS VL: DIQMTQSPSTLSASVGDRVTITCRASEGIYHSLAWYQQKPGKAPKLLIYKASSLASGVPSRFSGSGSGTEFTLTISSLQPDDFATYYCQQYSDYPLTFGGGTKVEIK	317
Antibody 03 scFv (scFv) QVQLQQSGAEVKKPGSSVKVSCKASGGTFSSYAISWVRQAPGQGLEWMGGIIPTFGTANYAQKFQGRVTITADESTSTAYMELSGLRSEDTAVYYCAREKRQWLEGHFDYWGRGTPVTVSSDIQMTQSPSFLSASIGDRVTITCRASEGIYRSLAWYQQKPGKAPKLLIYKASSLASGAPSRFSGSGSGTDFTLTISGLQPDDFATYYCQQYSNYPLTFGGGTKLEIK	165

## Input Record request: Chromogenic IC50 ratio rat/human value, item Antibody 04 scFv (scFv) QVRLQQSGAEVKKPGSSVKVSCKASGGTFSSYAISWVRQAPGQGLEWMGGIIPTFGTANYAQKFRGRVTITANESTSTAYMELSGLRSEDTAVYYCAREKRQWLEGRFDYWGRGTLVTVSSDIQMTQSPSFLSASIGDRITITCRASEGIYHSLAWYQQKPGKAPKLLIHRATSLASGTPSRFGGSGSGTDFALTISSLQPDDFATYYCQQYSNYPLTFGGGTKLEIK
## Output 51.4
